# assayedTarget: human plasma kallikrein (Homo sapiens)
# assayOverview: Kallikrein inhibition FLINT assay with quenched AMC peptide substrate Z-Gly-Pro-Arg-AMC (end point EP or kinetic KIN reads)
# Assay type: biochemical
# reportedConditions: kinetic reads at 5 min intervals over 30 min; read-out: Kallikrein (KIN) IC50
pIC50: −log10 of the molar value.
measurementType: pIC50

1 = O=C(O)c1ccc(-c2cnn(C(Cc3ccn(C(F)F)n3)c3ccc(-c4c(-n5cc(Cl)nn5)ccc(Cl)c4F)c[n+]3[O-])c2)cc1 (single isomer, unassigned)
2 = NC(=O)c1ccc(-c2cnn(C(Cc3ncon3)c3ccc(-c4c(-n5cc(C(F)(F)F)nn5)ccc(Cl)c4F)c[n+]3[O-])c2)cc1F (stereo not drawn)
3 = COC(=O)Nc1ccc(-c2cnn(C(CC3CC3)c3cc(OC)c(-c4c(-n5cnnn5)ccc(Cl)c4F)c[n+]3[O-])c2)cc1 (stereo not drawn)
Rank order required: pIC50, descending. Answer by listing the labels in the requested order.
1, 3, 2

* * *

# assayedTarget: human plasma kallikrein (Homo sapiens, UniProt P03952)
# Sequence (P03952 391-638 limits assumed): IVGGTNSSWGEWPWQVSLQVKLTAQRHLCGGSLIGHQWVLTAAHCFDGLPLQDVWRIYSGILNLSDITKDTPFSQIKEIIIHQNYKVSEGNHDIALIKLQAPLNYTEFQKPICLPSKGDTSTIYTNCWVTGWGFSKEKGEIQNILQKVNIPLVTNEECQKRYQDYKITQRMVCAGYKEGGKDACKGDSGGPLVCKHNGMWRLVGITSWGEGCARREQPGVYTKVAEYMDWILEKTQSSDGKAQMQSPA
# Sequence (P03952 20-390 partner limits assumed): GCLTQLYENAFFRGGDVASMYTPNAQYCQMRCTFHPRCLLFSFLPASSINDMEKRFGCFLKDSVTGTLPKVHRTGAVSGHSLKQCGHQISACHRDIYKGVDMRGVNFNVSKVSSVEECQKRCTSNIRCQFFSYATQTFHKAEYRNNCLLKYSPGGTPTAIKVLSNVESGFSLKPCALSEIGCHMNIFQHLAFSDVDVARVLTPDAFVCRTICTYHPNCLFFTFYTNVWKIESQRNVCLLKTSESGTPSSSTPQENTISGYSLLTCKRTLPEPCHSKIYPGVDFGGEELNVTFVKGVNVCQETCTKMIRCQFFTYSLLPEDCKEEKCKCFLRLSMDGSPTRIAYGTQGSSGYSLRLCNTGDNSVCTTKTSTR
# assayOverview: Kallikrein inhibition FLINT assay with quenched AMC peptide substrate Z-Gly-Pro-Arg-AMC (end point EP or kinetic KIN reads)
# Assay type: biochemical
# reportedConditions: kinetic reads at 5 min intervals over 30 min; read-out: Kallikrein (KIN) IC50
pIC50: −log10 of the molar value.
measurementType: pIC50

[
  {
    "compound": "COC(=O)Nc1ccc(-c2cnn(C(CN(C)C(=O)OC)c3ccc(-c4c(-n5cnnn5)ccc(Cl)c4F)c[n+]3[O-])c2)cc1 (stereo not drawn)",
    "pIC50": 7.67
  }
]

1 = [O-][n+]1cc(-c2c(-n3cnnn3)ccc(Cl)c2F)ccc1C(Cn1cccn1)n1cc(-c2ccnc(C(F)(F)F)c2)cn1 (single isomer, unassigned) [Example P514]
2 = O=C(C1CC1CC(c1ccc(-c2c(-n3cnnn3)ccc(Cl)c2F)c[n+]1[O-])n1cc(-c2ccncc2)cn1)N1CCC(c2ccccc2)C1 (stereo not drawn)
Which shows the larger pIC50 value: 1 or 2 ? Select an item and report its label.
1
(1: 7.14, 2: 6.80)

A = Cn1ccc(C[C@H](c2ccc(-c3cc(Cl)ccc3OCC(F)(F)F)c[n+]2[O-])n2cc(-c3ccc(C(=O)O)cc3)cn2)n1
B = [O-][n+]1cc(-c2c(-n3cnnn3)ccc(Cl)c2F)ccc1[C@@H](CCOC(F)F)n1cc(-c2scnc2C(F)(F)F)cn1
Which shows the larger pIC50 value: A or B ? Select an item and report its label.
B
(B: 7.87, A: 6.29)

* * *

# assayedTarget: human plasma kallikrein (Homo sapiens)
# assayOverview: Kallikrein inhibition FLINT assay with quenched AMC peptide substrate Z-Gly-Pro-Arg-AMC (end point EP or kinetic KIN reads)
# Assay type: biochemical
# reportedConditions: kinetic reads at 5 min intervals over 30 min; read-out: Kallikrein (KIN) IC50
measurementType: IC50 (nM)

[
  {
    "molecule": "Nc1ccc(-c2cnn(C(Cn3cccn3)c3ccc(-c4c(-n5cnnn5)ccc(Cl)c4F)c[n+]3[O-])c2)c(F)n1 (single isomer, unassigned) [Example P315]",
    "reading": 51
  },
  {
    "molecule": "Cn1cncc1-c1cnn(C(CC2CC2)c2ccc(-c3c(-n4cnnn4)ccc(Cl)c3F)c[n+]2[O-])c1 (stereo not drawn) [Example P457]",
    "reading": 554
  },
  {
    "molecule": "CN(CC(c1ccc(-c2c(-n3cnnn3)ccc(Cl)c2F)c[n+]1[O-])n1cc(-c2ccncc2)cn1)C(=O)Cc1ccccc1 (stereo not drawn)",
    "reading": 24.9
  }
]

1 = O=C(C1CC1CC(c1ccc(-c2c(-n3cnnn3)ccc(Cl)c2F)c[n+]1[O-])n1cc(-c2ccncc2)cn1)N1CCCC1 (stereo not drawn)
2 = O=C(c1cnn(CC(c2ccc(-c3c(-n4cnnn4)ccc(Cl)c3F)c[n+]2[O-])n2cc(-c3ccnc(C(F)(F)F)c3)cn2)c1)N1CCCCC1 (single isomer, unassigned)
Which shows the larger IC50 value: 1 or 2 ? Select an item and report its label.
1
(1: 197 nM, 2: 16 nM)

* * *

# assayedTarget: human plasma kallikrein (Homo sapiens, UniProt P03952)
# assayOverview: Kallikrein inhibition FLINT assay with quenched AMC peptide substrate Z-Gly-Pro-Arg-AMC (end point EP or kinetic KIN reads)
# Assay type: biochemical
# reportedConditions: kinetic reads at 5 min intervals over 30 min; read-out: Kallikrein (KIN) IC50
pIC50: −log10 of the molar value.
measurementType: pIC50

Previously resolved entries follow.
[
  {
    "compound": "COC(=O)Nc1ccc(-c2cnn(C(CC(C)C)c3ccc(-c4c(-n5cnnn5)ccc(Cl)c4F)c[n+]3[O-])c2)cc1 (stereo not drawn) [Example P179]",
    "reading": 6.75
  },
  {
    "compound": "CN(CC(c1ccc(-c2c(-n3cnnn3)ccc(Cl)c2F)c[n+]1[O-])n1cc(-c2ccncc2)cn1)C(=O)c1ccccc1 (stereo not drawn) [Example P296]",
    "reading": 7.44
  },
  {
    "compound": "O=C(c1cnn(CC(c2ccc(-c3c(-n4cnnn4)ccc(Cl)c3F)c[n+]2[O-])n2cc(-c3ccncc3)cn2)c1)N1CCCCC1 (stereo not drawn) [Example P291]",
    "reading": 7.90
  },
  {
    "compound": "NC(=O)c1ccc(-c2cnn(C(CCOC(F)F)c3ccc(-c4c(-n5cnnn5)ccc(Cl)c4F)c[n+]3[O-])c2)cc1F (single isomer, unassigned) [Example P928]",
    "reading": 9.05
  }
]

a = NC(=O)c1ccc(-c2cnn(C(CCOC(F)F)c3ccc(-c4c(-n5cnnn5)ccc(Cl)c4F)c[n+]3[O-])c2)cc1F (single isomer, unassigned) [Example P929]
b = Cn1nncc1-c1cnn([C@H](Cc2ccc(F)cc2)c2ccc(-c3c(-n4cc(OC(F)F)nn4)ccc(Cl)c3F)c[n+]2[O-])c1 [Example P635]
c = O=C(O)C1CCN(C(=O)C2CC2CC(c2ccc(-c3c(-n4cnnn4)ccc(Cl)c3F)c[n+]2[O-])n2cc(-c3ccccc3)cn2)CC1 (stereo not drawn) [Example P213]
// smallest pIC50 at index 0, largest at the end Answer by listing the labels in the requested order.
c, a, b

* * *

# assayedTarget: human plasma kallikrein (Homo sapiens)
# assayOverview: Kallikrein inhibition FLINT assay with quenched AMC peptide substrate Z-Gly-Pro-Arg-AMC (end point EP or kinetic KIN reads)
# Format: biochemical
# reportedConditions: kinetic reads at 5 min intervals over 30 min; read-out: Kallikrein (KIN) IC50
pIC50: −log10 of the molar value.
measurementType: pIC50

[
  {
    "compound": "CCC(c1ccc(-c2c(-n3cnnn3)ccc(Cl)c2F)c[n+]1[O-])n1cc(-c2ccc(C(N)=O)c(F)c2)cn1 (single isomer, unassigned) [Example P949]",
    "pIC50": 7.67
  }
]

I = O=C(Cc1cnn(CC(c2ccc(-c3c(-n4cnnn4)ccc(Cl)c3F)c[n+]2[O-])n2cc(-c3ccnc(C(F)(F)F)c3)cn2)c1)N1CCCCC1 (stereo not drawn) [Example P475]
II = COC(=O)Nc1ccc(-c2cnn(C(CCOC(F)F)c3ccc(-c4c(-n5cnnn5)ccc(Cl)c4F)c[n+]3[O-])c2)cc1 (stereo not drawn) [Example P226]
Which has the smaller recorded pIC50, I or II ? Select an item and report its label.
I

* * *

# assayedTarget: human plasma kallikrein (Homo sapiens, UniProt P03952)
# assayOverview: Kallikrein inhibition FLINT assay with quenched AMC peptide substrate Z-Gly-Pro-Arg-AMC (end point EP or kinetic KIN reads)
# Assay type: biochemical
# reportedConditions: kinetic reads at 5 min intervals over 30 min; read-out: Kallikrein (KIN) IC50
measurementType: IC50 (µM)

1 = [O-][n+]1cc(-c2c(-n3cnnn3)ccc(Cl)c2F)ccc1C(CC1CC1)n1cc(-c2ccnn2C(F)F)cn1 (stereo not drawn) [Example P542]
2 = Cn1nnc(F)c1-c1cnn([C@H](CCOC(F)F)c2ccc(-c3c(-n4cnnn4)ccc(Cl)c3F)c[n+]2[O-])c1 [Example P724]
3 = NC(=O)c1ccc(-c2cnn(C(CC3CC3)c3ccc(-c4c(-n5cnnn5)ccc(Cl)c4F)c[n+]3[O-])c2)cc1F (single isomer, unassigned) [Example P946]
Arrange the items listed above so that IC50 rises from first to last. Answer by listing the labels in the requested order.
2, 1, 3
(2: 0.0085 µM, 1: 0.302 µM, 3: 0.834 µM)

* * *

# assayedTarget: human plasma kallikrein (Homo sapiens, UniProt P03952)
# assayOverview: Kallikrein inhibition FLINT assay with quenched AMC peptide substrate Z-Gly-Pro-Arg-AMC (end point EP or kinetic KIN reads)
# Assay type: biochemical
# reportedConditions: kinetic reads at 5 min intervals over 30 min; read-out: Kallikrein (KIN) IC50
pIC50: −log10 of the molar value.
measurementType: pIC50

[
  {
    "compound": "[O-][n+]1cc(-c2c(-n3cnnn3)ccc(Cl)c2F)ccc1[C@@H](Cc1ccc(C(F)(F)F)nc1)n1cc(-c2cncn2C(F)F)cn1",
    "pIC50": 7.48
  }
]

A = Cn1cc(-c2cnn(C(CC3CC3)c3ccc(-c4c(-n5cnnn5)ccc(Cl)c4F)c[n+]3[O-])c2)cn1 (stereo not drawn)
B = NC(=O)c1ccc(-c2cnn(C(Cc3ccn(C(F)F)n3)c3ccc(-c4c(-n5cc(Cl)nn5)ccc(Cl)c4F)c[n+]3[O-])c2)cc1 (single isomer, unassigned) [Example P911]
Which shows the larger pIC50 value: A or B ? Select an item and report its label.
B
(B: 9.70, A: 6.08)
